Molecular target: Prolyl endopeptidase (Mus musculus)
Test: in situ PREP and ABHD6 off-target inhibition, dose response, selectivity assay for PME-1 inhibitor project, cell-based, fluorescence, gel-based ABPP (AID 588835)
Settings: in situ gel-based competitive ABPP, PREP, IC50, second panel column
pIC50: −log10 of the molar value.
reported.endpoint: pIC50

1. CC[C@@]1(c2ccc(C)cc2)C(=O)N(C(=O)OC(C)C)N1C(=O)OC(C)C; 5.63

Data provenance is PubChem BioAssay AID588835.
